target: Tyrosinase (Agaricus bisporus)
Sequence (O42713 whole entry): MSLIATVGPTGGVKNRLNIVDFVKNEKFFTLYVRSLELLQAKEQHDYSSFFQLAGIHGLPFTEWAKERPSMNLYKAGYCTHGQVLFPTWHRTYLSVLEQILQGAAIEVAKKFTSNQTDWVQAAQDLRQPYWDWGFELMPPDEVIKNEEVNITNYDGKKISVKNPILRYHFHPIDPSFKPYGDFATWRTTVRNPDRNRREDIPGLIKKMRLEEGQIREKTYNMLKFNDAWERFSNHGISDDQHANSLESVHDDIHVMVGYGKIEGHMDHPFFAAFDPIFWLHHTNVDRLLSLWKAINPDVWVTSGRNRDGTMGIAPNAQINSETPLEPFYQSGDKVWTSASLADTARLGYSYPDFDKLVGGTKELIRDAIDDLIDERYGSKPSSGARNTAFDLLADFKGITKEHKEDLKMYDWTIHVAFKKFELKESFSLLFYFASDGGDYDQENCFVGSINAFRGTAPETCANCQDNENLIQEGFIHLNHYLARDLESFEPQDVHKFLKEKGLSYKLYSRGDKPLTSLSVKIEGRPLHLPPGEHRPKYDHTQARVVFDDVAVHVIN
Label label 1 when IC50 < 80 µM; otherwise label 0.

Record "CN1[C@@H]2CC[C@H]1C/C(=N/Nc1nc(-c3ccc(Br)cc3)cs1)C2" : is its IC50 strictly below 80 µM?
label 0

Cool, now "CN1[C@@H]2CC[C@H]1C/C(=N/Nc1nc(-c3ccc(N=[N+]=[N-])cc3)cs1)C2"
label 1

Same question for "Cc1ccc(-c2csc(N/N=C3\C[C@H]4CC[C@@H](C3)N4C)n2)cc1" please.
label 0

Request: "CN1[C@@H]2CC[C@H]1C/C(=N/Nc1nc(-c3ccc(Cl)cc3)cs1)C2"
label 0

What do you get for "CN1[C@@H]2CC[C@H]1C/C(=N/Nc1nc(-c3ccc(F)cc3)cs1)C2" ?
label 0

Follow-up item: "CN1[C@@H]2CC[C@H]1C/C(=N/Nc1nc(-c3ccc(Cl)c(Cl)c3)cs1)C2"
label 1

"CN1[C@@H]2CC[C@H]1C/C(=N/Nc1nc(-c3ccc(Cl)cc3Cl)cs1)C2" , same question.
label 1

Entry "CN1[C@@H]2CC[C@H]1C/C(=N/Nc1nc(-c3ccc(C(F)(F)F)cc3)cs1)C2" please
label 1
